# Test system: Staphylococcus aureus
# Test summary: Antibacterial activity against wild type methicillin-susceptible Staphylococcus aureus ATCC 49951 by broth microdilution method
# Assay type: functional
Metric: MIC (µg/mL)
Quick reminder: number only, in µg/mL, skip the unit.

// solved cases for MIC follow
| Smiles entry | MIC (µg/mL) |
| --- | --- |
| O=C(O)c1cn(C2CC2)c2cc(N3CCN(CCOCCOCCOCCOCCOCCN4CCN(c5cc6c(cc5F)c(=O)c(C(=O)O)cn6C5CC5)CC4)CC3)c(F)cc2c1=O | 2 |
| O=C(NCC(=O)N1CCN(c2cc3c(cc2F)c(=O)c(C(=O)O)cn3C2CC2)CC1)c1cccc(C(=O)NCC(=O)N2CCN(c3cc4c(cc3F)c(=O)c(C(=O)O)cn4C3CC3)CC2)c1 | 1 |

input: Fill blank: measured MIC of the compound "CC(C)(C)OC(=O)NCCCCCC(=O)N1CCN(c2cc3c(cc2F)c(=O)c(C(=O)O)cn3C2CC2)CC1" is ____.
output: 2

input: So what does the record say about MIC for "CN(CC(=O)N1CCN(c2cc3c(cc2F)c(=O)c(C(=O)O)cn3C2CC2)CC1)CC(=O)N1CCN(c2cc3c(cc2F)c(=O)c(C(=O)O)cn3C2CC2)CC1" ?
output: 2

###

# System: Escherichia coli
# Test summary: Antibacterial activity against tolC-deficient Escherichia coli NB27005-CDY0039 expressing gyrA S83L […], parC S80I mutant by broth microdilution method
# Assay type: functional
Measured MIC of individual entries

Would you please look over these solved cases?
| Smiles entry | MIC |
| --- | --- |
| O=C(O)c1cn(C2CC2)c2cc(N3CCN(CCOCCOCCN4CCN(c5cc6c(cc5F)c(=O)c(C(=O)O)cn6C5CC5)CC4)CC3)c(F)cc2c1=O | > 32 µg/mL |
| O=C(O)c1cn(C2CC2)c2cc(N3CCN(CCOCCOCCOc4ccc5ccc(=O)oc5c4)CC3)c(F)cc2c1=O | > 32 µg/mL |
| CC(C)(C)OC(=O)NCCCCCC(=O)N1CCN(c2cc3c(cc2F)c(=O)c(C(=O)O)cn3C2CC2)CC1 | 2 µg/mL |

input: Quick check: MIC of "O=C(O)c1cn(C2CC2)c2cc(N3CCN(Cc4cccc(CN5CCN(c6cc7c(cc6F)c(=O)c(C(=O)O)cn7C6CC6)CC5)c4)CC3)c(F)cc2c1=O" ?
output: > 32 µg/mL

input: I would be grateful if you could share the reported MIC for "O=C(NCCCCC(=O)N1CCN(c2cc3c(cc2F)c(=O)c(C(=O)O)cn3C2CC2)CC1)c1cccc(C(=O)NCCCCC(=O)N2CCN(c3cc4c(cc3F)c(=O)c(C(=O)O)cn4C3CC3)CC2)c1" .
output: > 32 µg/mL

input: Item under review: "Cc1cc(C(=O)N2CCN(c3cc4c(cc3F)c(=O)c(C(=O)O)cn4C3CC3)CC2)cc(C(=O)N2CCN(c3cc4c(cc3F)c(=O)c(C(=O)O)cn4C3CC3)CC2)c1" . Reported MIC?
output: 16 µg/mL

input: # query: MIC of entry "O=C(CCN1CCN(c2cc3c(cc2F)c(=O)c(C(=O)O)cn3C2CC2)CC1)NCCOCCOCCNC(=O)CCN1CCN(c2cc3c(cc2F)c(=O)c(C(=O)O)cn3C2CC2)CC1"
output: > 32 µg/mL

input: Any idea what its MIC is? The molecule is "O=C(O)c1cn(C2CC2)c2cc(N3CCN(CCOCCOCCOCCOCCOCCOCCOCCN4CCN(c5cc6c(cc5F)c(=O)c(C(=O)O)cn6C5CC5)CC4)CC3)c(F)cc2c1=O"
output: 8 µg/mL

input: Fill in: MIC of "CN(CC(=O)N1CCN(c2cc3c(cc2F)c(=O)c(C(=O)O)cn3C2CC2)CC1)CC(=O)N1CCN(c2cc3c(cc2F)c(=O)c(C(=O)O)cn3C2CC2)CC1" is ___
output: 32 µg/mL

input: Reported MIC, molecule "O=C(O)c1cn(C2CC2)c2cc(N3CCN(CCOCCOCCOCCN4CCN(c5cc6c(cc5F)c(=O)c(C(=O)O)cn6C5CC5)CC4)CC3)c(F)cc2c1=O" : ____
output: > 32 µg/mL
